Provenance of the data: ChEMBL document CHEMBL3588785

organism: Homo sapiens; experiment: Selectivity for ERK (unknown origin) over C-RAF (unknown origin) at 1 uM
measuredParameter: Selectivity ratio

1: C=CC(=O)Nc1ccccc1Nc1nc(N[C@H]2CC[C@H](N(C)C)CC2)ncc1Cl
2: C=CC(=O)Nc1ccccc1Nc1nc(NC2CCOCC2)ncc1C
Query: Looking at 1 and 2 , which one comes out lower in Selectivity ratio terms? # respond with the chosen item's label
Reply: 2

###

test: Clearance in mouse hepatocytes measured per 10^6 cells; format: ADME, cell-based, Hepatocyte; conditions: read-out: CLH
measuredParameter: hepatocyte CLint (µL/min/1e6 cells)
The response must be a number in µL/min/1e6 cells with no trailing unit.

Query: I would be grateful if you could share the reported hepatocyte CLint for `C=CC(=O)Nc1ccccc1Nc1nc(NC2CCOCC2)ncc1C(F)(F)F` .
Reply: 143

###

species on record: Homo sapiens; test: Selectivity for ERK (unknown origin) over FLT1 (unknown origin) at 1 uM
measuredParameter: Selectivity ratio

Use the examples below as a reference point.
C=CS(=O)(=O)N1CCc2[nH]nc(-c3ccnc(C)c3)c2C1: 5
C=CC(=O)Nc1ccccc1Nc1nc(NC2CCOCC2)ncc1Cl: 4
C=CS(=O)(=O)Nc1ccc2[nH]nc(-c3ccncc3)c2c1: 8

A: C=CC(=O)Nc1ccccc1Nc1nc(N[C@H]2CC[C@H](N(C)C)CC2)ncc1Cl
B: C=CC(=O)Nc1ccccc1Nc1nc(Nc2ccnn2C)ncc1Cl
Query: Sort A and B by Selectivity ratio descending and give the first. # respond with the chosen item's label
Reply: B

###

organism: Homo sapiens; experiment: Selectivity for ERK (unknown origin) over MEK1 (unknown origin) at 1 uM
measuredParameter: Selectivity ratio

Use the examples below as a reference point.
C=CC(=O)Nc1ccccc1Nc1nc(N[C@H]2CC[C@H](N(C)C)CC2)ncc1Cl: 4
C=CS(=O)(=O)N1CCc2cnc(NC3CCOCC3)nc2C1: 2
C=CC(=O)Nc1ccccc1Nc1nc(NC2CCOCC2)ncc1C(F)(F)F: 6
C=CC(=O)Nc1ccccc1Nc1nc(Nc2ccnn2C)ncc1Cl: 7
C=CC(=O)Nc1ccccc1Nc1nc(NC2CCOCC2)ncc1C: 2
C=CC(=O)Nc1ccccc1Nc1cc(NC2CCOCC2)ncc1Cl: 2

1: C=CC(=O)Nc1cnccc1Nc1nc(NC2CCOCC2)ncc1Cl
2: C=CS(=O)(=O)N1CCc2[nH]nc(-c3ccnc(C)c3)c2C1
Query: Looking at 1 and 2 , which one comes out lower in Selectivity ratio terms? # respond with the chosen item's label
Reply: 1
(1: 2, 2: 5)

###

target: Mitogen-activated protein kinase 1 (Homo sapiens, UniProt P28482); test: Inhibition of ERK2 in human A375 cells harboring B-RAF V600E mutant assessed as decrease in phospho-ERK2 level after 2 hrs by Cellomics ArrayScanTM VTI imaging analysis; format: cell-based, A-375
measuredParameter: IC50 (nM)

Use the examples below as a reference point.
C=CC(=O)Nc1ccccc1Nc1nc(N[C@H]2CC[C@H](N(C)C)CC2)ncc1Cl: 72
C=CC(=O)Nc1ccccc1Nc1nc(Nc2ccnn2C)ncc1C: 66
C=CS(=O)(=O)Nc1ccc2[nH]nc(-c3ccncc3)c2c1: 120
C=CC(=O)Nc1ccccc1Nc1nc(NC2CCOCC2)ncc1C: 170
C=CS(=O)(=O)N1CCc2cnc(NC3CCOCC3)nc2C1: 240
CCS(=O)(=O)N1CCc2cnc(NC3CCOCC3)nc2C1: 10000

P: CNC(=O)c1ccc(F)cc1Nc1cc(Nc2cc(C)nn2C)ncc1C(F)(F)F
Q: C=CC(=O)Nc1ccccc1Nc1cc(NC2CCOCC2)ncc1Cl
R: C=CC(=O)Nc1ccccc1Nc1nc(NC2CCOCC2)ncc1C(F)(F)F
Query: Order field: IC50 | Direction: descending (largest first) Answer format: the labels, in the requested order.
Reply: P, Q, R
(P: 8700 nM, Q: 120 nM, R: 22 nM)
